system: U2OS; assay: Incucyte cell viability with U2OS; format: toxicity, cell-based; conditions: human, 6 h, 10 µM, compound concentration 10 uM, replicate number 2, timepoint 6 hours; also: unitless GR value; below 1 slowed growth and below 0 cell loss
Growth Rate under 0.6 gets TRUE, anything at or over 0.6 gets FALSE.

COc1c(C)cc(NC(=O)c2nn(Cc3ccc(F)cc3)c3c2CN(C(=O)c2ccc[nH]2)C[C@]3(C)C(N)=O)cc1C ... FALSE
CC(C)(O)C(=O)N1CCN(c2ccc(C(F)(F)F)c(C3=C(c4c[nH]c5ccccc45)C(=O)NC3=O)c2)CC1 ... FALSE
Br.Br.N=C(N)NCCSC(=N)N ... FALSE
C[C@H](NC(=O)CNC(=O)c1cccc(Cl)c1)c1ccccc1 ... FALSE
CCC(=O)NC[C@@H]1C[C@H]1c1cccc2c1CCO2 ... TRUE

## Input Given NCCc1cn(S(=O)(=O)c2c(Cl)nc3sccn23)c2ccccc12.O=C(O)C(=O)O , is recorded Growth Rate strictly lower than 0.6?
## Output TRUE

## Input Given Cc1cnc(-c2cc(N3CCN(C(=O)CCS(C)(=O)=O)CC3)ncc2Cl)c(C)c1 , is recorded Growth Rate strictly lower than 0.6?
## Output FALSE

###

system: U2OS; assay: Incucyte cell viability with U2OS; format: toxicity, cell-based; conditions: human, 12 h, 10 µM, compound concentration 10 uM, replicate number 2, timepoint 12 hours; also: unitless GR value; below 1 slowed growth and below 0 cell loss
Growth Rate under 0.7 gets t, anything at or over 0.7 gets f.

Cc1onc(-c2ccccc2Cl)c1C(=O)N(C)c1ccc(Cl)cc1 ... t
O=C1NC(=Nc2c(Cl)cccc2Cl)S/C1=C\c1ccc2nccnc2c1 ... t
Cc1nnc2n1-c1sc(CCC(=O)N3CCOCC3)cc1C(c1ccccc1Cl)=NC2 ... f

## Input Given C[C@H](CCC(=O)O)[C@H]1CC[C@H]2[C@@H]3CC[C@@H]4C[C@H](O)CC[C@]4(C)[C@H]3CC[C@]12C , is recorded Growth Rate strictly lower than 0.7?
## Output f

## Input Given COCCCN1CCC(NC(=O)c2cc(Cl)c(N)c3c2OCC3)CC1 [PRUCALOPRIDE] , is recorded Growth Rate strictly lower than 0.7?
## Output f

## Input Given COc1ccc(-n2c(C)c([N+](=O)[O-])c3ccc(O)cc32)cc1 , is recorded Growth Rate strictly lower than 0.7?
## Output f

## Input Given OCCN1CCN(CCCN2c3ccccc3Sc3ccc(Cl)cc32)CC1 , is recorded Growth Rate strictly lower than 0.7?
## Output t

## Input Given COc1cc2c(Oc3ccc(NC(=O)C4(C(=O)Nc5ccc(F)cc5)CC4)cc3F)ccnc2cc1OCCCN1CCOCC1 , is recorded Growth Rate strictly lower than 0.7?
## Output t

## Input Given Cc1sc2c(c1C)C(c1ccc(Cl)cc1)=N[C@@H](CC(=O)NCCCCCCCCNC(=O)COc1cccc3c1C(=O)N(C1CCC(=O)NC1=O)C3=O)c1nnc(C)n1-2 (some centres undefined) , is recorded Growth Rate strictly lower than 0.7?
## Output t

###

test system: HEK-293T; test: Incucyte cell viability with HEK293T; format: toxicity, cell-based; conditions: human, 6 h, 10 µM, compound concentration 10 uM, replicate number 1, timepoint 6 hours; also: unitless GR value; below 1 slowed growth and below 0 cell loss
Entries and their Growth Rate values follow.
Could you keep your reply to the number by itself?

CC[C@@]1(O)C(=O)OCc2c1cc1n(c2=O)Cc2cc3ccccc3nc2-1 [CAMPTOTHECIN] ... -0.29
CN(C)C(=O)Cn1cc(-c2ccc(-c3nnc4ccccn34)cc2)cn1 ... 0.7

## Input Look up and state reported Growth Rate for Cc1cc(C)cc([C@@H]2c3cc(C)ccc3NC(=O)CN2C(=O)c2ccc(Br)s2)c1
## Output 0.88

## Input Look up and state reported Growth Rate for Cc1cc(NC(=O)NCCN2CCC(O)(Cc3ccccc3)CC2)c2ccccc2n1 [PALOSURAN]
## Output 0.95

## Input Look up and state reported Growth Rate for CC(C)(C)c1ccc(CSc2cnn(C(C)(C)C)c(=O)c2Cl)cc1 [PYRIDABEN]
## Output -0.14

## Input Look up and state reported Growth Rate for CC(COc1ccccc1)N(CCCl)Cc1ccccc1.Cl (configuration not stated) [PHENOXYBENZAMINE HYDROCHLORIDE]
## Output 0.03

## Input Look up and state reported Growth Rate for C[C@H]1[C@H](OC(=O)CCC(=O)O)O[C@@H]2O[C@@]3(C)CC[C@H]4[C@H](C)CC[C@@H]1[C@@]24OO3 [ARTESUNATE]
## Output 0.56

###

Entries and their Growth Rate values follow.
system: HEK-293T; experiment: Incucyte cell viability with HEK293T; format: toxicity, cell-based; conditions: human, 6 h, 10 µM, compound concentration 10 uM, replicate number 2, timepoint 6 hours; also: unitless GR value; below 1 slowed growth and below 0 cell loss
Could you keep your reply to the number by itself?

COc1cc(Br)c(S(=O)(=O)Nc2ccc(C(F)(F)F)c(O[C@@H]3CCN(C)C3)c2)cc1OC ... 0.09

## Input Look up and state reported Growth Rate for COc1ccccc1N1CCN(CCCCNC(=O)c2ccc3ccccc3c2)CC1.Cl
## Output 0.65

## Input Look up and state reported Growth Rate for CN1CCN(c2nc3cc(C(F)(F)F)ccc3n3cccc23)CC1.O=C(O)/C=C\C(=O)O.O=C(O)/C=C\C(=O)O
## Output 0.57

## Input Look up and state reported Growth Rate for CSCC[C@H](NC=O)C(=O)N[C@@H](CC(C)C)C(=O)N[C@@H](Cc1ccccc1)C(=O)O
## Output 0.85

## Input Look up and state reported Growth Rate for CCCCCCCCCCCCC/C=C/[C@@H](O)[C@@H](N)COP(=O)(O)O
## Output -0.17

## Input Look up and state reported Growth Rate for O=C(NCCO)c1cccc(-c2cc(Nc3ccc(OC(F)(F)F)cc3)ncn2)c1
## Output -0.4

## Input Look up and state reported Growth Rate for CCC(=O)N1CC[C@H](Nc2ncnc3c2CN(c2cnc(OC)c(C(F)(F)F)c2)CC3)C1 [LENIOLISIB]
## Output -0.14

## Input Look up and state reported Growth Rate for OCCCNc1cc(-c2ccnc(Nc3cccc(Cl)c3)n2)ccn1
## Output -0.7

## Input Look up and state reported Growth Rate for CCCCCCNC(=O)Nc1ccc(S(=O)(=O)Nc2ccc(CCNC[C@H](O)COc3ccc(O)cc3)cc2)cc1 [L-755507]
## Output 0.53

## Input Look up and state reported Growth Rate for N=C(N)NCCC[C@@H](NC(=O)C(c1ccccc1)c1ccccc1)C(=O)NCc1ccc(CNC(N)=O)cc1.O=C(O)C(F)(F)F.O=C(O)C(F)(F)F
## Output 0.41

## Input Look up and state reported Growth Rate for Cc1ccc(/C(=C\CN2CCCC2)c2ccccn2)cc1 [TRIPROLIDINE]
## Output 0.8

## Input Look up and state reported Growth Rate for O=C1[C@H](Cc2ccc(O)cc2)N2C(=O)CCN(C(=O)NCc3ccccc3)[C@H]2CN1Cc1cccc2ccccc12
## Output -0.2

## Input Look up and state reported Growth Rate for Cc1ccccc1C#Cc1ccc(CCC(=O)O)cc1
## Output 0.81

###

test system: Fibroblast; experiment: Incucyte cell viability with human fibroblast; assay type: toxicity, cell-based; details: 0 h, 10 µM, compound concentration 10 uM, replicate number 1, timepoint 0 hours; also: unitless GR value; below 1 slowed growth and below 0 cell loss
Please note: YES applies when Growth Rate is 0.3 or greater, and NO applies otherwise.

Illustrative cases are given below, each with its answer.
CC(C)(O)C(=O)N1CCN(c2ccc(C(F)(F)F)c(C3=C(c4c[nH]c5ccccc45)C(=O)NC3=O)c2)CC1 ... NO
Cc1c(CC(=O)O)c2cccnc2n1Cc1ccc(S(C)(=O)=O)cc1C(F)(F)F [FEVIPIPRANT] ... YES
O=C(O)c1ccccc1S(=O)(=O)NCCCCN1C(=O)c2cccc3cccc(c23)C1=O ... NO
Cc1ccc(F)cc1C(=O)Nc1ccc(C(=O)N2Cc3cccn3Cc3ccccc32)c(Cl)c1 [LIXIVAPTAN] ... NO

## Input Does the compound CCCCC[C@H](O)/C=C/[C@H]1CCC(=O)[C@@H]1CCCCCCC(=O)O have recorded Growth Rate that is 0.3 or more?
## Output NO

## Input Does the compound COc1cc(C(=O)N(CCCc2ccccc2)Cc2ccc(CC(=O)O)cc2)cc(OC)c1C have recorded Growth Rate that is 0.3 or more?
## Output NO

## Input Does the compound CN1C[C@H](C(=O)N[C@]2(C)O[C@@]3(O)[C@@H]4CCCN4C(=O)[C@H](Cc4ccccc4)N3C2=O)C[C@@H]2c3cccc4[nH]cc(c34)C[C@H]21.CS(=O)(=O)O [DIHYDROERGOTAMINE MESYLATE] have recorded Growth Rate that is 0.3 or more?
## Output NO

## Input Does the compound NC(=O)c1ccc(CNC(=O)NC[C@H]2CN(Cc3ccc(Cl)c(Cl)c3)CCO2)cc1 have recorded Growth Rate that is 0.3 or more?
## Output NO

###

system: Fibroblast; experiment: Incucyte cell viability with human fibroblast; type: toxicity, cell-based; settings: 24 h, 10 µM, compound concentration 10 uM, replicate number 2, timepoint 24 hours; also: unitless GR value; below 1 slowed growth and below 0 cell loss
Entries and their Growth Rate values follow.

These recorded examples may help you get a feel for the data.
Cc1cc(=O)n(C)c2cc(N3C(=O)CC[C@H](NS(=O)(=O)CC(C)C)[C@H]3c3ccc(Cl)cc3)ccc12 ... -0.38
O=C(c1cc(C2CC2)on1)N(C1CCCCC1)C1CCCCC1 ... 0.8
Cc1cc(Nc2ncc(Cl)c(Nc3ccccc3S(=O)(=O)C(C)C)n2)c(OC(C)C)cc1C1CCNCC1 ... -0.52
CCC(=O)NCC[C@@H]1CCc2ccc3c(c21)CCO3 ... 0.89
CCOC(=O)N[C@@H]1CC[C@@H]2[C@@H](C1)C[C@H]1C(=O)O[C@H](C)[C@H]1[C@H]2/C=C/c1ccc(-c2cccc(F)c2)cn1 ... 0.15
CN(C)CCN(Cc1ccc(-c2ccc(CNCCc3ccccc3)cc2)cc1)C(=O)CCC1CCCC1.Cl.Cl ... -0.98

## Input Look up and state reported Growth Rate for CCOC(=O)Nc1cc(-c2ccc(C)c(NS(C)(=O)=O)c2)nn2c(C)nnc12
## Output 0.95

## Input Look up and state reported Growth Rate for O=C(Nc1cc(C(F)(F)F)ccc1N1CCCCC1)c1ccncc1
## Output 0.83

## Input Look up and state reported Growth Rate for C[S+](C)[O-] [DIMETHYL SULFOXIDE]
## Output 0.93
